Target: UniProt:P32245
recorded metric: pKi
The value called pKi is obtained by taking minus log10 of the concentration in mol/L.

O=C(NCCc1ccc(Cl)cc1Cl)c1ccc(N/C(=N\C2CCNC2)NC2CCCCC2)cc1 (stereo not given): 5.82
CC(C)(N)C/N=C(\Nc1ccc(C(=O)NCCc2ccc(Cl)cc2Cl)cc1)NC1CCCCC1: 5.89
C[C@H]1CN(/C(=N/c2ccc(C(=O)NCCc3ccc(Cl)cc3Cl)cc2)NC2CCCCC2)CCN1: 6.24
C[C@@H]1CN(C(=NC2CCCCC2)Nc2ccc(C(=O)NCCc3ccc(Cl)cc3Cl)cc2)CCN1: 6.08

Now examine the next entry.
Q: Reported pKi for C[C@@H]1CN[C@@H](C)CN1/C(=N/c1ccc(C(=O)NCCc2ccc(Cl)cc2Cl)cc1)NC1CCCCC1 : what is it?
Result: 6.08

----------
Target: Melanocortin receptor 4 (Homo sapiens, UniProt P32245)
Sequence (P32245 whole entry): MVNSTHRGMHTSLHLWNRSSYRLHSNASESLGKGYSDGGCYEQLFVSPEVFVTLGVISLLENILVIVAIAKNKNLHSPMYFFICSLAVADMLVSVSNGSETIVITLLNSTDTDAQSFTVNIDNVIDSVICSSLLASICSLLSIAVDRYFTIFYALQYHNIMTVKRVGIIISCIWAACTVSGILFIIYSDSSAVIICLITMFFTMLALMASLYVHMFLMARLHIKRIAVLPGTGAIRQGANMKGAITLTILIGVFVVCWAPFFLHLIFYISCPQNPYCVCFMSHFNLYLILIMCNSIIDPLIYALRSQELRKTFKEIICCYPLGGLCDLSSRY
Experiment: Intrinsic activity as percentage of maximal melanocortin receptor 4 related cAMP production relative to alpha-MSH
Assay type: functional
Reported IA values are given for each entry in this list.
Form entry: value (%) — number only.

CC(C)(N)C/N=C(\Nc1ccc(C(=O)NCCc2ccc(Cl)cc2Cl)cc1)NC1CCCCC1: 45
CC1CN(/C(=N/c2ccc(C(=O)NCCc3ccc(Cl)cc3Cl)cc2)NC2CCCCC2)CC(C)N1 (stereo unspecified): 76

Q: What measured IA is associated with O=C(NCCc1ccc(Cl)cc1Cl)c1ccc(N/C(=N/C2CCCCC2)N2CCNCC2)cc1 on Melanocortin receptor 4 (Homo sapiens, UniProt P32245)?
Result: 28

Q: Entry to check: CNC1CCN(/C(=N/c2ccc(C(=O)NCCc3ccc(Cl)cc3Cl)cc2)NC2CCCCC2)C1 (stereo unspecified)
Result: 36

Q: Now try C[C@@H]1CN(/C(=N/c2ccc(C(=O)NCCc3ccc(Cl)cc3Cl)cc2)NC2CCCCC2)CCN1 .
Result: 37

Q: Now consider C[C@H]1CN(/C(=N/c2ccc(C(=O)NCCc3ccc(Cl)cc3Cl)cc2)NC2CCCCC2)CCN1 and answer again.
Result: 65

----------
Target: Melanocortin receptor 5 (Homo sapiens, UniProt P33032)
Sequence (P33032 whole entry): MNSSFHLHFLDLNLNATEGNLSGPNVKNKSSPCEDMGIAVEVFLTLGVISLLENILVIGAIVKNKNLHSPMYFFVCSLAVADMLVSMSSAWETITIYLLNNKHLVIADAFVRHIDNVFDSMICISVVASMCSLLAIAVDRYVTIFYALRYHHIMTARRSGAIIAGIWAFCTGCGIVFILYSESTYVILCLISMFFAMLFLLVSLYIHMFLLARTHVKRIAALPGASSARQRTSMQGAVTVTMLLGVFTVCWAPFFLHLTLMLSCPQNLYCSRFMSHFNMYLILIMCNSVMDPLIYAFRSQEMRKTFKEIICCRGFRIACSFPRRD
Definition: the class of an entry is the range in low interval = under 40 nM, middle interval = from 40 nM up to 200 nM, high interval = 200 nM and over that contains its Ki.

CNC1CCN(/C(=N/c2ccc(C(=O)NCCc3ccc(Cl)cc3Cl)cc2)NC2CCCCC2)C1 (stereo unspecified): low interval
C[C@H]1CN(/C(=N/c2ccc(C(=O)NCCc3ccc(Cl)cc3Cl)cc2)NC2CCCCC2)CCN1: low interval
CC1CN(C(=NC2CCCCC2)Nc2ccc(C(=O)NCCc3ccc(Cl)cc3Cl)cc2)CC(C)O1 (stereo unspecified): high interval
CC1CC(C)CN(C(=NC2CCCCC2)Nc2ccc(C(=O)NCCc3ccc(Cl)cc3Cl)cc2)C1 (stereo unspecified): middle interval
C[C@@H]1CN[C@@H](C)CN1/C(=N/c1ccc(C(=O)NCCc2ccc(Cl)cc2Cl)cc1)NC1CCCCC1: low interval
O=C(NCCc1ccc(Cl)cc1Cl)c1ccc(N/C(=N\C2CCNC2)NC2CCCCC2)cc1 (stereo unspecified): low interval
O=C(NCCc1ccc(Cl)cc1Cl)c1ccc(NC(=NC2CCCCC2)N2CCN(Cc3ccccc3)CC2)cc1: middle interval
NC1CCN(C(=NC2CCCCC2)Nc2ccc(C(=O)NCCc3ccc(Cl)cc3Cl)cc2)CC1: high interval

Q: For CC1C(=O)NCCN1C(=NC1CCCCC1)Nc1ccc(C(=O)NCCc2ccc(Cl)cc2Cl)cc1 (stereo unspecified) , which Ki bin applies?
Result: high interval

Q: Please do the same for Cc1ccc(C)c(N2CCN(C(=NC3CCCCC3)Nc3ccc(C(=O)NCCc4ccc(Cl)cc4Cl)cc3)CC2)c1 as well.
Result: high interval

Q: Now give it for CN(/C(=N/c1ccc(C(=O)NCCc2ccc(Cl)cc2Cl)cc1)NC1CCCCC1)C1CCCCC1 too.
Result: middle interval
